Entries and their IC50
tgt: human recombinant FAAH (Homo sapiens)
Sequence (O00519 whole entry): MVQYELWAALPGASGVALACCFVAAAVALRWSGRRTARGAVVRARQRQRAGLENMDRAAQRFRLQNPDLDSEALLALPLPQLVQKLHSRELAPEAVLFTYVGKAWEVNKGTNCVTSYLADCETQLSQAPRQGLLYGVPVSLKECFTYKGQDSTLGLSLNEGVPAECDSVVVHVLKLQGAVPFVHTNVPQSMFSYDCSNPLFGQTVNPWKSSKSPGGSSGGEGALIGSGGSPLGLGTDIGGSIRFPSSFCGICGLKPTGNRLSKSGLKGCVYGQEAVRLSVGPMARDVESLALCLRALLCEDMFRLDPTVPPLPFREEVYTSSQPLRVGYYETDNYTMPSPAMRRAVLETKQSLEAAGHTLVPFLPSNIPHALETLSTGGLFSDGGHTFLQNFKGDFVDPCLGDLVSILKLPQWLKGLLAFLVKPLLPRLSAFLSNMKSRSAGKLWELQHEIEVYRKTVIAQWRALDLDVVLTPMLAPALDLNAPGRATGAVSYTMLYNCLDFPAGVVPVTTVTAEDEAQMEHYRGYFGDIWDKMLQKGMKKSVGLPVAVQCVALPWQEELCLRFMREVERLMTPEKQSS
assay.info: FAAH inhibition enzymatic assay, fluorescent substrate Arachidonoyl-AMC, 30 minute incubation
condition.context: T = 30 min (30 minute incubation); geometric mean of 2-4 determinations unless otherwise indicated
Entry rule: numbers only, all in µM.

Examples from the recorded data:
{"columns": ["molecule", "IC50 / µM"],
 "data": [
  ["CN(C1COC2(CCN(C(=O)O[C@H](CO)C(F)(F)F)CC2)C1)S(=O)(=O)c1ccc(F)cc1 (single isomer, unassigned) [Example 110]", 7.09],
  ["O=C(O[C@H](CO)C(F)(F)F)N1CCC2(CC1)CC(c1cccc(Cl)c1)CO2 (mixture of isomers)", 3.57]
]}

Attention now shifts to the item below.
Query string: State the recorded IC50 for this entry: Cc1ccc(CC2COC3(CCN(C(=O)O[C@H](CO)C(F)(F)F)CC3)C2)nc1 (mixture of isomers)
Result string: 18.3

###

tgt: human recombinant Monoacylglycerol Lipase (Homo sapiens, UniProt Q99685)
Sequence (Q99685 whole entry): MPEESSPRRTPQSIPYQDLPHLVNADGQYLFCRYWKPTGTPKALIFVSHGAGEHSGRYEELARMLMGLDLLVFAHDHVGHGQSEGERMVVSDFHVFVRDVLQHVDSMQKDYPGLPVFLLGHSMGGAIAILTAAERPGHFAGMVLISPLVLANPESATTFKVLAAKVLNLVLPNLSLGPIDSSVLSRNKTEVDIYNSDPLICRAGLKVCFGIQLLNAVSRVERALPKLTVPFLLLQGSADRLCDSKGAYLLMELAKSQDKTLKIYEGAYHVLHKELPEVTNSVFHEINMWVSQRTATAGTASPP
assay.info: MAGL inhibition enzymatic assay, fluorogenic substrate 7-HCA, IC50 at T=0 min or after 30 minute incubation (T=30 min)
Type: biochemical
condition.context: T = 0 min (substrate added immediately); geometric mean of 2-4 determinations unless otherwise indicated; read-out: MAGL (T = 0 min) IC50
pIC50: −log10 of the molar value.
Quick rule: pIC50 of at least 7 means rule met, below that means rule not met.

{"columns": ["compound", "class.label"],
 "data": [
  ["CC(C)N([C@H]1COC2(CCN(C(=O)O[C@H](CO)C(F)(F)F)CC2)C1)S(=O)(=O)c1ccccc1 [Example 107]", "rule met"]
]}

Query string: Is pIC50 at least 7? Consider O=C(O[C@H](CO)C(F)(F)F)N1CCC2(CC1)CN(Cc1ccc(F)cc1)C(=O)O2 [Example 72]
Result string: rule not met

Query string: Record: O=C(O[C@H](CO)C(F)(F)F)N1CCC2(CC1)CN(S(=O)(=O)c1ccc(F)c(Cl)c1)CCO2 [Example 60]
Result string: rule met

Query string: Input Cc1cc(S(=O)(=O)N2CCOC3(CCN(C(=O)O[C@H](CO)C(F)(F)F)CC3)C2)ccc1F [Example 51]
Result string: rule met

Query string: Now the compound O=C(O[C@H](COP(=O)([O-])[O-])C(F)(F)F)N1CCC2(CC1)CN(S(=O)(=O)c1ccc(F)cc1)CCO2.[Na+].[Na+] [Example 32, phosphate, disodium salt]
Result string: rule not met

Query string: // repeat for Cc1cnc(N2CCOC3(CCN(C(=O)O[C@H](CO)C(F)(F)F)CC3)C2)nc1 [Example 76] and report
Result string: rule not met

###

tgt: human recombinant Monoacylglycerol Lipase (Homo sapiens)
assay.info: MAGL inhibition enzymatic assay, fluorogenic substrate 7-HCA, IC50 at T=0 min or after 30 minute incubation (T=30 min)
Type: biochemical
condition.context: T = 0 min (substrate added immediately); geometric mean of 2-4 determinations unless otherwise indicated; read-out: MAGL (T = 0 min) IC50
pIC50: −log10 of the molar value.
If the reported pIC50 equals or exceeds 7, assign T. If not, assign F.

Study these solved cases before continuing.
{"columns": ["compound", "class.label"],
 "data": [
  ["CN(C(=O)c1ccccn1)[C@H]1COC2(CCN(C(=O)O[C@H](CO)C(F)(F)F)CC2)C1 [Example 146]", "F"],
  ["CCc1cccc(S(=O)(=O)N2CCOC3(CCN(C(=O)O[C@H](CO)C(F)(F)F)CC3)C2)c1 [Example 77]", "T"],
  ["O=C(O)C(F)(F)F.O=C(O[C@H](CO)C(F)(F)F)N1CCC(Oc2nccc3ccccc23)CC1 [Example 26, trifluoroacetic acid salt]", "T"],
  ["O=C(O[C@H](CO)C(F)(F)F)N1CCC2(CC1)CC(n1cccn1)CO2 (single isomer, unassigned) [Example 104]", "F"]
]}

Query string: In plain terms: is recorded pIC50 at least 7 for CN([C@H]1COC2(CCN(C(=O)O[C@H](CO)C(F)(F)F)CC2)C1)S(=O)(=O)C1CC1 [Example 93] ?
Result string: F

Query string: Cool, now O=C(O[C@H](CO)C(F)(F)F)N1CCC2(CC1)CCN(S(=O)(=O)c1cccnc1)C2 [Example 135]
Result string: F

Query string: Field entry: O=C(O[C@H](CO)C(F)(F)F)N1CCC2(CC1)CN(Cc1ccc(F)cc1)S(=O)(=O)CO2 [Example 28]
Result string: F

Query string: Also O=C(O[C@H](CO)C(F)(F)F)N1CCC2(CC1)CCN(S(=O)(=O)c1ccccc1)C2 [Example 105] , if possible.
Result string: T

Query string: Now try O=C(O[C@H](CO)C(F)(F)F)N1CCC(c2ccn(-c3ccc(F)cc3)n2)CC1 [Example 2] .
Result string: T

Query string: Further, for O=C(O[C@H](CO)C(F)(F)F)N1C[C@@H]2[C@H](C1)[C@H]2c1ccn(Cc2ccccn2)n1 [Example 37] ?
Result string: F

Query string: Also, CN([C@H]1COC2(CCN(C(=O)O[C@H](CO)C(F)(F)F)CC2)C1)S(=O)(=O)c1ccccc1 [Example 15] please.
Result string: T

Query string: Moving on to CC(c1ccc(F)cc1)N1CCOC2(CCN(C(=O)O[C@H](CO)C(F)(F)F)CC2)C1 (single isomer, unassigned) [Example 45]
Result string: F

Values compiled from patent US10723711B2.
